- Test system: HEK-293T
- ASSAY: Incucyte cell viability with HEK293T; further: filed as whole numbers so only -1 and 0 and 1 occur
- Type: toxicity, cell-based
- CONDITION NOTES: human, 6 h, 10 µM, compound concentration 10 uM, replicate number 1, timepoint 6 hours
Where a SMILES comes first, the peptide text is derived from it. [ ]: non-standard residue; d: D form. Arg(Me) = CNC(=N)NCCC[C@H](N)C(=O)O; d4Pal = N[C@H](Cc1ccncc1)C(=O)O; azaGly = NNC(=O)O
ENDPOINT LABEL: Growth Rate
Output spec: single numeric token, no unit.

>  <COMPOUND>
Cc1cc(F)c(C(=O)Nc2cccc(-c3nncn3C(C)C)n2)cc1-n1cnc(C2CC2)c1

>  <RECORDED VALUE>
0

$$$$

Problem: Data request, read-out Growth Rate, for O=C(O)[C@@H]1[C@@H](Cn2nnc3ccccc3c2=O)CC[C@H]1C(=O)c1ccc(OCCC2CCOCC2)cc1
Result: 0

Problem: One more compound: CNC(=N)NCCC[C@H](NC(=O)[C@H](CC(C)C)NC(=O)NNC(=O)[C@H](Cc1ccccc1)NC(=O)[C@H](CO)NC(=O)[C@H](CC(N)=O)NC(=O)[C@@H](Cc1ccncc1)NC(=O)[C@H](N)Cc1ccc(O)cc1)C(=O)N[C@@H](Cc1ccccc1)C(N)=O [KISS1-305] (H-[dY][d4Pal]NSF[azaGly]L[Arg(Me)]F-NH2)
Result: 0

Cited source for all entries: ChEMBL document CHEMBL4689842
